Target: Stp1 (UniProt B3LFK1)
Sequence: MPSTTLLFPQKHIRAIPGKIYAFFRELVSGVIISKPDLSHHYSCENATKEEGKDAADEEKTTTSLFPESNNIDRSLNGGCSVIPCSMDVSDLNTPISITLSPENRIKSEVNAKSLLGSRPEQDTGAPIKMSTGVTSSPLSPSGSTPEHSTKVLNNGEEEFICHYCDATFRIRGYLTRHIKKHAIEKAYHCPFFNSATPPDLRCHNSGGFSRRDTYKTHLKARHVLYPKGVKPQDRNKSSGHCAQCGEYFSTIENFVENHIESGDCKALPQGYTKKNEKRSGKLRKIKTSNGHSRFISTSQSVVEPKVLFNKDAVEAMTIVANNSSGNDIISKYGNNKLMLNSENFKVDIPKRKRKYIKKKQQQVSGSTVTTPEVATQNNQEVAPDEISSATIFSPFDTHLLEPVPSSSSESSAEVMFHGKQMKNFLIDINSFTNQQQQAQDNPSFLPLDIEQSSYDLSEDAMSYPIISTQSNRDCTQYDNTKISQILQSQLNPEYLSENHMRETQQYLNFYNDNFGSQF
Assay: PBM E-score (8-mer binding enrichment) (E-score (-0.5 to 0.5)); higher = stronger / more preferred TF binding
Settings: protein concentration: 200 nM; construct: GST-full length
The full ranking holds about 33,000 sequences; the median of “E-score (-0.5 to 0.5)” is about -0.016, and the highest 2% start at about 0.32. What follows is part of a selection rich in the highest values, with near analogues and random picks from the rest.
Label scheme for PBM E-score: lower than -0.03 is false, -0.03 and above is true.

chainSequence: GGAAACTA
answerLabel: false
//
chainSequence: AGAGAGAA
answerLabel: false
//
chainSequence: CATGCGGC
answerLabel: true
//
chainSequence: TCATCCGA
answerLabel: true
//
chainSequence: ACGGCTAT
answerLabel: true
//
chainSequence: AGTGGGCG
answerLabel: true
//
chainSequence: CAACCATG
answerLabel: false
//
chainSequence: AATGCGGT
answerLabel: true
//
chainSequence: AACGAGAC
answerLabel: false
//
chainSequence: GCGGCTAA
answerLabel: true
//
chainSequence: GCGGCTAC
answerLabel: true
//
chainSequence: GATGCGCC
answerLabel: true
//
chainSequence: TAGCGCTA
answerLabel: false
//
chainSequence: ACGGCTAA
answerLabel: true
//
chainSequence: AGGGCTAT
answerLabel: false
//
chainSequence: ATGTCCTC
answerLabel: false
//
chainSequence: TCGGCTAA
answerLabel: true
//
chainSequence: CCGGCTAC
answerLabel: true
//
chainSequence: CAAGTCGG
answerLabel: false

###

Molecular target: Stp1 (UniProt B3LFK1)
Sequence: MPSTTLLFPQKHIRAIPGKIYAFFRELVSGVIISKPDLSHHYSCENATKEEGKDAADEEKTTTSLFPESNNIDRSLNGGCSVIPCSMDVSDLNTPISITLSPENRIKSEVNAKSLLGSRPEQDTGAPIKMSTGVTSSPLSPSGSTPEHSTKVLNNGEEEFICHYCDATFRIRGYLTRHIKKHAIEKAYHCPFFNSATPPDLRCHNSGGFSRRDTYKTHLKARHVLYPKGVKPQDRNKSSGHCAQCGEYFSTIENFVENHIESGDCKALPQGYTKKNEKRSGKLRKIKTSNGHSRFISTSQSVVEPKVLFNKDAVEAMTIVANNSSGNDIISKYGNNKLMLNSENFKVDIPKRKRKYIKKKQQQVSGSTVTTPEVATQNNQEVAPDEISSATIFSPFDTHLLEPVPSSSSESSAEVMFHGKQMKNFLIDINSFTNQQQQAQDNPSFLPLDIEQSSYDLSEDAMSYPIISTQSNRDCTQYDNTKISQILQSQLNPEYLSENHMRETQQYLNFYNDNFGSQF
Assay: PBM E-score (8-mer binding enrichment) (E-score (-0.5 to 0.5)); higher = stronger / more preferred TF binding
Conditions: protein concentration: 200 nM; construct: GST-full length
The full ranking holds about 33,000 sequences; the median of “E-score (-0.5 to 0.5)” is about -0.016, and the highest 2% start at about 0.32. The sample as a whole holds a higher share of the highest values than the screen did.
PBM E-score vs 0.06: at or above is label 1, below is label 0.

chainSequence: AAGCGGAG
answerLabel: label 0

chainSequence: CAGCGGCC
answerLabel: label 0

chainSequence: CGCCGTCA
answerLabel: label 1

chainSequence: ATGGCATC
answerLabel: label 1

chainSequence: CACCGTTC
answerLabel: label 0

chainSequence: ATCTGCAA
answerLabel: label 0

chainSequence: AGGGCATG
answerLabel: label 1

chainSequence: AGCCGCAA
answerLabel: label 1

chainSequence: TGCCGTAA
answerLabel: label 1

chainSequence: CTTCAAGC
answerLabel: label 0

chainSequence: AGCCGCAC
answerLabel: label 1

chainSequence: CACGTAGG
answerLabel: label 0

chainSequence: CTATGGTA
answerLabel: label 0

chainSequence: CTATATTA
answerLabel: label 1

chainSequence: ACAAGCGT
answerLabel: label 0

chainSequence: AAGCGGAT
answerLabel: label 0

chainSequence: ATCTAGCG
answerLabel: label 0

chainSequence: GAGCGGCA
answerLabel: label 1

chainSequence: AGCCGTTA
answerLabel: label 1

chainSequence: AGCCGTTG
answerLabel: label 1

chainSequence: AAGCGGCG
answerLabel: label 1

chainSequence: GGCATCCC
answerLabel: label 0

chainSequence: AGCCGTCC
answerLabel: label 1

chainSequence: GTTGTGGA
answerLabel: label 0

chainSequence: GACCGTAC
answerLabel: label 0

chainSequence: CCGGCACC
answerLabel: label 1

chainSequence: CTCTTAGC
answerLabel: label 0

chainSequence: TAGCGGCA
answerLabel: label 1

chainSequence: ATATATAT
answerLabel: label 1

chainSequence: AGAGTGTC
answerLabel: label 1

chainSequence: GGGGCACC
answerLabel: label 1

chainSequence: CTATGCTA
answerLabel: label 0

chainSequence: AGCCCTGC
answerLabel: label 0

chainSequence: GGGCATAC
answerLabel: label 0

chainSequence: GTGGCACA
answerLabel: label 1

chainSequence: AAGCGGGA
answerLabel: label 0

chainSequence: GGGGCACA
answerLabel: label 0

chainSequence: GCGTCTAC
answerLabel: label 0

chainSequence: ATTTATTA
answerLabel: label 1

chainSequence: GAACGTAA
answerLabel: label 1

chainSequence: GGCCGTAA
answerLabel: label 1

chainSequence: AAGCGGGT
answerLabel: label 0

chainSequence: AGAGAGTC
answerLabel: label 0

chainSequence: CGCCGTAA
answerLabel: label 1

chainSequence: AGGCGCTA
answerLabel: label 1

chainSequence: ATCCGTAC
answerLabel: label 1

chainSequence: ATTATTTA
answerLabel: label 1

chainSequence: TCCCGTAA
answerLabel: label 0

chainSequence: CCGGCATC
answerLabel: label 0

chainSequence: CCAGAGAG
answerLabel: label 0

chainSequence: CCAACGGC
answerLabel: label 1

chainSequence: AGGCCGCC
answerLabel: label 0

chainSequence: AGCCGTTC
answerLabel: label 1

chainSequence: AAAGCACT
answerLabel: label 0

chainSequence: ACAACGGC
answerLabel: label 1

chainSequence: CCCTATCG
answerLabel: label 0

chainSequence: ACTATACC
answerLabel: label 0

chainSequence: ATGCCGCC
answerLabel: label 1

chainSequence: CGGCGCTA
answerLabel: label 1

chainSequence: ACACGAAA
answerLabel: label 1

chainSequence: CACTTAGC
answerLabel: label 1

chainSequence: AGTTCTAA
answerLabel: label 0

chainSequence: CCCAAATA
answerLabel: label 0

chainSequence: AAATAAAC
answerLabel: label 1

chainSequence: CTGCGCTA
answerLabel: label 0

chainSequence: ATTCTACA
answerLabel: label 1

chainSequence: AGGCGCTG
answerLabel: label 1

chainSequence: ACCCGTAC
answerLabel: label 1

chainSequence: GCAACGGC
answerLabel: label 1

chainSequence: CCCTTATA
answerLabel: label 0

chainSequence: CGCCGTTC
answerLabel: label 1

chainSequence: CCCCGTAA
answerLabel: label 0

chainSequence: CACCGTAA
answerLabel: label 0

chainSequence: ACCCGCAC
answerLabel: label 1

chainSequence: AACGCGCT
answerLabel: label 0

chainSequence: ACGTCGTG
answerLabel: label 0

chainSequence: AGTACTTG
answerLabel: label 1

chainSequence: AGCCGTAC
answerLabel: label 1

chainSequence: AAGCGGCA
answerLabel: label 1
